Reported values of fold change (FC) for individual entries
# Test system: KBM5
# experimentNotes: Inhibition of TNF-alpha-induced NF-kappaB activation in human KBM5 cells at 100 uM treated for 12 hrs before TNFalpha challenge measured after 30 mins by EMSA relative to control
# Type: cell-based
Form: value (number only, do not type unit).

Example entries begin here.
CCCCCCCCCC(=O)N1C(=O)OC[C@@H]1Cc1ccccc1
2.4
CCCCCCCC[C@H](C(=O)N1C(=O)OC[C@@H]1Cc1ccccc1)[C@H](O)CCOCc1ccccc1
1.3
CCCCCCCC[C@@H]1COC(C)(C)O[C@@H]1CCOCc1ccccc1
1.4
CCCCCCCCCCCCCC[C@H]1COC(=O)C[C@H]1O
3.6
CCCCCCCC[C@H](CO)[C@H](O)CCOCc1ccccc1
1.1

From here, focus on the item given below.
Qu. Give a short answer stating reported fold change (FC) for CCCCCCC[C@H](CO)[C@H](O)CCOCc1ccccc1 .
Ans. 4.5
